Tested On: XIAP BIR3 (Homo sapiens)
Construct: covering amino acids 241 to 356; XIAP BIR3
Sequence (P98170 241-356): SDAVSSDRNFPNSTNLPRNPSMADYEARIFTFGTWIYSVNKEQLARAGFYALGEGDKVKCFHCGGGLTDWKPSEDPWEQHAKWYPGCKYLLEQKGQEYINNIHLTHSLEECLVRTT
Protocol Text: XIAP BIR3 binding assay (DELFIA), displacement of SMAC peptide
Settings: GST-fusion BIR3 domain (aa 241 to 356) 10 nM, SMAC peptide 10 nM; activity of the (S)-isomers
Measure: IC50 (nM)

CNC(C)C(=O)Nc1ccc(-c2c(C)nc3ccccn23)c(C#Cc2ccc(-c3cccnc3)cc2)n1 (stereo not shown) | 112
CNC(C)C(=O)Nc1ccc(-c2c(C)nc3ccccn23)c(C#Cc2ccc3c(c2)CC(=O)N3C)n1 (stereo not shown) | 252

A. CNC(C)C(=O)Nc1ccc(-c2cnc(N3CCCC3)nc2)c(C#Cc2ccc3ccccc3c2)n1 (stereo not shown)
B. CNC(C)C(=O)Nc1ccc(-c2c(C)nc3ccccn23)c(C#Cc2ccc3cc(F)ccc3c2)n1 (stereo not shown)
[ask] Which has the smaller recorded IC50, A or B ? // caller expects the label of the chosen entry
[reply] A
(A: 284 nM, B: 453 nM)

###

Tested On: cIAP1 BIR3 (Homo sapiens)
Construct: covering amino acids 256 to 363; cIAP1 BIR3
Sequence (Q13490 256-363): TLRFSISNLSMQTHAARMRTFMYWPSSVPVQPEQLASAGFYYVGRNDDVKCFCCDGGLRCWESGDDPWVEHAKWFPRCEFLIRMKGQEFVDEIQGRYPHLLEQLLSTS
Protocol Text: cIAP1 BIR3 binding assay (DELFIA), displacement of SMAC peptide
Settings: GST-fusion BIR3 domain (aa 256 to 363) 10 nM, SMAC peptide 10 nM; activity of the (S)-isomers
pIC50: −log10 of the molar value.
Measure: pIC50

Answered examples (3):
CNC(C)C(=O)Nc1ccc(-c2cncc(OC)c2)c(C#Cc2ccccc2)n1 (centres unmarked) | 7.51
CNC(C)C(=O)Nc1ccc(-c2c(C)nc3ccccn23)c(C#Cc2ccc(-n3cccn3)cc2)n1 (centres unmarked) | 9.00
CNC(C)C(=O)Nc1ccc(-c2cnc(-n3ccnc3)nc2)c(C#Cc2ccccc2)n1 (centres unmarked) | 7.66

1. Cc1ccccc1C#Cc1cccc(NC(=O)C(C)N)n1 (centres unmarked)
2. CC(N)C(=O)Nc1cccc(C#Cc2cccs2)n1 (centres unmarked)
3. CNC(C)C(=O)Nc1ccc(-c2c(-c3ccncc3)nc3cc(C)ccn23)c(C#Cc2ccc(Cl)c(Cl)c2)n1 (centres unmarked)
[ask] Task for the reader: rank each entry by its pIC50, from the minimum upward. Reply format: the labels, ordered as requested.
[reply] 1, 2, 3
(1: 6.17, 2: 6.69, 3: 9.00)

P. CNC(C)C(=O)Nc1ccc(-c2c(C)nc3ccccn23)c(C#Cc2ccc(-c3ccon3)cc2)n1 (centres unmarked)
Q. CNC(C)C(=O)Nc1ccc(-c2ccc3c(c2)C(=O)c2ccccc2-3)c(C#Cc2ccccc2)n1 (centres unmarked)
R. CNC(C)C(=O)Nc1ccc(-c2c(C)nc3ccccn23)c(C#Cc2nn(C)c3ccccc23)n1 (centres unmarked)
S. CNC(C)C(=O)Nc1ccc(-c2ccc3ncn(C)c(=O)c3c2)c(C#Cc2ccccc2)n1 (centres unmarked)
T. CNC(C)C(=O)Nc1ccc(-c2cccc3ccccc23)c(C#Cc2ccccc2)n1 (centres unmarked)
[ask] Order these by pIC50, descending, and give the full ranking. Reply format: the labels, ordered as requested.
[reply] P, R, S, Q, T

1. CNC(C)C(=O)Nc1ccc(-c2c(C)nc3ccccn23)c(C#Cc2ccc3nccn3c2)n1 (centres unmarked)
2. CNC(C)C(=O)Nc1ccc(-c2nnc(Cl)c3ccccc23)c(C#Cc2ccccc2)n1 (centres unmarked)
3. CNC(C)C(=O)Nc1ccc(-c2cnn(C)c2C)c(C#Cc2ccccc2)n1 (centres unmarked)
4. CC(N)C(=O)Nc1cc2ccccc2c(C#Cc2ccccc2)n1 (centres unmarked)
5. CC(N)C(=O)Nc1cc2ccccc2c(C#Cc2ccsc2)n1 (centres unmarked)
[ask] Order these by pIC50, descending, and give the full ranking. Reply format: the labels, ordered as requested.
[reply] 1, 2, 3, 5, 4
